Assay: Selectivity index, ratio of CC50 for mouse J774A.1 cells to IC50 for Leishmania donovani MHOM/IN/80/Dd8 amastigote forms infected in mouse J774A.1 cells
Format: toxicity, cell-based
Conditions: read-out: Ratio CC50/IC50
Lab note: anything with selectivity ratio below 9 is marked Satisfied; values at 9 or higher are marked Not satisfied.

Example results:
Molecule	Discrete Label
CC(C)(C)n1nnnc1C(c1ccc(Br)cc1)N1CCc2c([nH]c3ccccc23)C1 (stereo not given)	Not satisfied
CC(C)(C)n1nnnc1C(c1ccc([N+](=O)[O-])cc1)N1CCc2c([nH]c3ccccc23)C1 (stereo not given)	Not satisfied

Hello, I'm reviewing records and need to know if selectivity ratio of COc1ccc(C(c2nnnn2C(C)(C)C)N2CCc3c([nH]c4ccccc34)C2)cc1OC (stereo not given) is below 9. Could you check? Satisfied

# check: selectivity ratio < 9 for CC(C)(C)n1nnnc1C(c1ccc(Cl)cc1)N1CCc2c([nH]c3ccccc23)C1 (stereo not given) Satisfied
